Target: HLA-A*0206 (human)
Experiment: competition with 125I-labelled standard peptide 941.01 for purified HLA-A*0206, gel filtration
measured.quantity: binding affinity ratio (IC50 of standard peptide / IC50 of test peptide)
Give only the figure.

Please review the entries below; each comes with its answer.
INSERT INTO assay_data (binder, recorded_measurement) VALUES
  ('SIALSVGCT (modifications not checked) [… (Kallikrein, position 7)]', 0.0006),
  ('RLSEPAKI (modifications not checked) [RLSEPAKI (Kallikrein, position 125)]', -0.0001),
  ('RAYSEKVT (modifications not checked) [RAYSEKVT (Kallikrein, position 186)]', 0.0001);

Entry RAVCGGVL (modifications not checked) [RAVCGGVL (PSA, position 43)] ; binding affinity ratio (IC50 of standard peptide / IC50 of test peptide) = -0.0001

The binder identified as RLSEPAKIT (modifications not checked) [… (Kallikrein, position 125)] registered its binding affinity ratio (IC50 of standard peptide / IC50 of test peptide) at -0.0001
